Please go through the items and note down their pIC50.
Target: recombinant N-terminal MLH1 (residues 15-340) (Homo sapiens)
Construct: recombinant N-terminal MLH1 (residues 15-340)
Assay: Fluorescence Polarisation Assay for MLH1
Details: 100 nM N-terminal MLH1, 5 nM probe compound
pIC50: −log10 of the molar value.

molecule: CN(C)CCOc1nc2c(c(NC3CCOC3)n1)CN(C(=O)c1c(O)cc(C#N)cc1OCc1ccccc1)CC2 (stereo not drawn)
measure: pIC50
reading: 6.00 to 7.00
//
molecule: N#Cc1cc(O)c(C(=O)N2Cc3cnc(N)cc3C2)c(OCc2ccccc2)c1
measure: pIC50
reading: 5.00 to 6.00
//
molecule: COc1ccc2c(c1N[C@H]1CCOC1)CN(C(=O)c1c(O)cc(C(F)F)cc1OCc1ccccc1)CC2
measure: pIC50
reading: 5.00 to 6.00

Okay, here is my list. What is pIC50 for each of these?
1. N#Cc1cc(O)c(C(=O)N2Cc3ccc(OC4CCOCC4)cc3C2)c(OCc2ccccc2)c1
2. O=C(c1c(O)cc(C(F)F)cc1OCc1ccccc1)N1Cc2cccc(NC3COC3)c2C1
3. CN(C)CCOc1cccc2c1CCN2C(=O)c1c(O)cc(C#N)cc1OCc1ccccc1
4. O=C(c1c(O)cc(C(F)F)cc1OCC12CC(CO1)C2)N1CCc2cccc(N[C@H]3CCOC3)c2C1
5. CN(C)Cc1ccc2c(c1)CN(C(=O)c1c(O)cc(C(F)F)cc1OCc1ccccc1)C2
6. CN1CCN(Cc2ccc3c(c2)CN(C(=O)c2c(O)cc(C#N)cc2OCc2ccccc2)C3)CC1

1: 6.00 to 7.00; 2: 6.00 to 7.00; 3: 5.00 to 6.00; 4: 5.00 to 6.00; 5: 6.00 to 7.00; 6: 6.00 to 7.00

Okay, here is my list. What is pIC50 for each of these?
1. CC(=O)N1CC(Nc2cccc3c2CN(C(=O)c2c(O)cc(F)cc2OCc2ccccc2)C3)C1
2. O=C(c1c(O)cc(C(F)F)cc1OCc1ccccc1)N1Cc2cnc(N3CCOCC3)cc2C1
3. CN(C)CCOc1ccc2c(c1)CCN(C(=O)c1c(O)cc(C(F)F)cc1OCc1ccccc1)C2

1: 6.00 to 7.00; 2: 6.00 to 7.00; 3: 6.00 to 7.00

----------
Molecular target: recombinant N-terminal MLH1 (residues 15-340) (Homo sapiens)
Construct: recombinant N-terminal MLH1 (residues 15-340)
Sequence (P40692 15-340): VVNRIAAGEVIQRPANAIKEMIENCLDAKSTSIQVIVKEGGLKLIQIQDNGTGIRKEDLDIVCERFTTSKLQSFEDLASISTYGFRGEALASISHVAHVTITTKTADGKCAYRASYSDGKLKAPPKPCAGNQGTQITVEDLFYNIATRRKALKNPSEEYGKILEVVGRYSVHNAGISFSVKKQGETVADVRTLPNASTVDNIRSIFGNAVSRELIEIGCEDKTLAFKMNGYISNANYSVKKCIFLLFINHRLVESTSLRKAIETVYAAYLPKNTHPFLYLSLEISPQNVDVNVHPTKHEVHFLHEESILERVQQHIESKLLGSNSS
Test: Fluorescence Polarisation Assay for MLH1
Details: 100 nM N-terminal MLH1, 5 nM probe compound
measure: IC50

Okay, here is my list. What is IC50 for each of these?
1. CN(C)CCOc1cc2c(c(N[C@@H]3CCOC3)c1)CN(C(=O)c1c(O)cc(Cl)cc1OCc1ccccc1)C2 [Example 9]
2. CN1CC(Oc2ccc3c(c2)CN(C(=O)c2c(O)cc(C#N)cc2OCc2ccccn2)C3)C1 [Example 10.37]
3. O=C(c1c(O)cc(C(F)F)cc1OCc1ccccc1)N1CCc2cccc(N[C@H]3CCOC3)c2C1 [Example 4.6]
4. CN1CC[C@@H](Nc2cccc3c2CN(C(=O)c2c(O)cc(C(F)F)cc2OCc2ccccc2)CC3)C1=O [Example 4.15]
5. COc1ccc2c(c1)CCN(C(=O)c1c(O)cc(C(F)F)cc1OCc1ccccc1)C2 [Example 4.39]

["0.1 to 1 µM", "1 to 10 µM", "0.1 to 1 µM", "0.1 to 1 µM", "1 to 10 µM"]
